system: F508delCFTR (Homo sapiens, UniProt P13569, DEL508-508)
Construct: expressed in transfected cells; host or cells: CFBE41o- (human lung derived epithelial cell line), doxycycline-inducible expression
Sequence (P13569 with tags, fused parts or gaps DEL508-508): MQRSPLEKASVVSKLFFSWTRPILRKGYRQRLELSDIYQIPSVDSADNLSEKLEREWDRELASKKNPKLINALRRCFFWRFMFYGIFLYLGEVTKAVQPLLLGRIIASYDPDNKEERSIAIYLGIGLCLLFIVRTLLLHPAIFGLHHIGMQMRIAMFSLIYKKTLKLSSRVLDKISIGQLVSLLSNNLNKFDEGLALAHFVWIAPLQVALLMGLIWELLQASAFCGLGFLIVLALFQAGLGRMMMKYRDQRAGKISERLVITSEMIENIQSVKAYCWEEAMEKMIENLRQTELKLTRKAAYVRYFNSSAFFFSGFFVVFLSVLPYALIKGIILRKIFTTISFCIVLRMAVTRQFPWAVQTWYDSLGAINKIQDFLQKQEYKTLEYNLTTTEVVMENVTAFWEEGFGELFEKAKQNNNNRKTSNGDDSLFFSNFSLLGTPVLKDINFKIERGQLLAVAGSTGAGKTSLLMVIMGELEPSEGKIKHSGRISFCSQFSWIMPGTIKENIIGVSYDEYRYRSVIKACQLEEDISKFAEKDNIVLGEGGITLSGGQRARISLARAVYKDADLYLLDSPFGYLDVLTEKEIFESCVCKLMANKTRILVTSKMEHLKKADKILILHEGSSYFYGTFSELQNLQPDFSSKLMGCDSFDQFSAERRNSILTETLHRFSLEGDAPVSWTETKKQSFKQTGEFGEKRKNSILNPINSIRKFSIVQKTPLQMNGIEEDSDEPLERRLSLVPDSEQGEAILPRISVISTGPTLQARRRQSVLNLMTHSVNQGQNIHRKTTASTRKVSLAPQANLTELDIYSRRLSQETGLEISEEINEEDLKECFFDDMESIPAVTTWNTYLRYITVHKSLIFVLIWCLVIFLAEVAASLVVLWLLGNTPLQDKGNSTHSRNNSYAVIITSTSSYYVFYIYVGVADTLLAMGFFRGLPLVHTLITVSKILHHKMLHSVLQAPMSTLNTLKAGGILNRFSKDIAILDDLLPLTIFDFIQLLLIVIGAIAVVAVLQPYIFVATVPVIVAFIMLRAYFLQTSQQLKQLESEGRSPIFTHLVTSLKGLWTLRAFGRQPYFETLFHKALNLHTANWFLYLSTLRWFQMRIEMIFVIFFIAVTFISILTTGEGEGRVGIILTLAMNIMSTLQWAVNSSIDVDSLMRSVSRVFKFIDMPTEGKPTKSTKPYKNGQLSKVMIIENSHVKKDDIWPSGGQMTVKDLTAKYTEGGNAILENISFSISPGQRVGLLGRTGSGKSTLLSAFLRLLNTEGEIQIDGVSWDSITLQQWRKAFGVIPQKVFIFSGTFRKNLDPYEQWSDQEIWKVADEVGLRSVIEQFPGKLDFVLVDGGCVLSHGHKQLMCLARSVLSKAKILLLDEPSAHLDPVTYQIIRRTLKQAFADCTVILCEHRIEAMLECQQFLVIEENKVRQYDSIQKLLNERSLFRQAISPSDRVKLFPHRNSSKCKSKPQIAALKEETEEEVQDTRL
assayText: Cell Surface Expression-Horse Radish Peroxidase (CSE-HRP) assay
Type: cell-based
conditionLabel: CFBE41o-F508delCFTR-HRP cells; with co-corrector (2 μM of 3-[(2R,4R)-4-({[1-(2,2-difluoro-1,3-benzodioxol-5-yl)cyclopropyl]carbonyl}amino)-7-methoxy-3,4-dihydro-2H-chromen-2-yl]benzoic acid); read-out: EC50 (with co-corrector)
measurementLabel: EC50

molecule	result
Cc1cc(C(F)(F)F)cc(OC2[C@@H](c3ccccc3)N(C(=O)C3CCCCC3)[C@@H](C(=O)O)[C@@H]2C(C)(C)C)n1 (mixture of isomers)	1000 to 10000 nM
COc1ncc(C(F)(F)F)cc1CO[C@H]1[C@H](C(C)(C)C)[C@@H](C(=O)O)N(C(=O)OC(C)C)[C@H]1c1ccccc1C1CCC1	1000 to 10000 nM
COc1ncc(C2CCC2)cc1CO[C@H]1[C@H](C(C)(C)C)[C@@H](C(=O)O)N(C(=O)C2CCOCC2)[C@H]1c1ccccc1C1CC1	< 1000 nM

Give the measured EC50 for `COc1ncc(C(F)(F)F)cc1CO[C@H]1[C@H](C(C)(C)C)[C@@H](C(=O)O)N(C(=O)[C@@H]2CCCCO2)[C@H]1c1ccccc1-c1cccc(Cl)c1` 1000 to 10000 nM

Give the measured EC50 for `COc1ncc(-c2ccccc2)cc1CO[C@H]1[C@H](C(C)(C)C)[C@@H](C(=O)O)N(C(=O)OC(C)C)[C@H]1c1ccccc1` 1000 to 10000 nM

Give the measured EC50 for `COc1ncc(C(F)(F)F)cc1CO[C@H]1[C@H](C(C)(C)C)[C@@H](C(=O)O)N(C(=O)[C@@H]2CCCCO2)[C@H]1c1ccccc1-c1ccc(=O)n(C)c1` 1000 to 10000 nM

Give the measured EC50 for `COc1ncc(C2CCC2)cc1CO[C@H]1[C@H](C(C)(C)C)[C@@H](C(=O)O)N(C(=O)C2CCC2)[C@H]1c1cccnc1OC(C)C` 1000 to 10000 nM

Give the measured EC50 for `COc1ncc(C(F)(F)F)cc1CO[C@H]1[C@H](C(C)(C)C)[C@@H](C(=O)O)N(C(=O)[C@@H]2CCCCO2)[C@H]1c1ccccc1-c1ccc(Cl)cc1` 1000 to 10000 nM
